Exercise: for every item that follows, state its recorded viability, T/C.
Test system: 282377-053-R-J1-PDC complex spheroids, viability;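 also: spheroids exposed to compounds for 7 days before readout; percent of vehicle DMSO control viability with 100% = untreated-like growth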
assayMethodText: Anticancer human tumor 282377-053-R-J1-PDC patient-derived colon adenocarcinoma cell line growth inhibition [GQUAD]
details: second compound 0.0316 µM; first compound 0.0316 µM; stronger effect = lower value

Query: viability, T/C; subject: Cn1ncnc1[C@H]1c2n[nH]c(=O)c3cc(F)cc(c23)N[C@@H]1c1ccc(F)cc1 + Cc1[nH]c2ccc(F)cc2c1-c1nc2c3cccnc3c3ncccc3c2[nH]1 88.1%

Query: viability, T/C; subject: Nc1ccn(C2OC(CO)C(O)C2(F)F)c(=O)n1 (configuration not stated) + CN(C)c1ccc(Nc2c3ccc(NC(=O)CCN4CCCC4)cc3nc3cc(NC(=O)CCN4CCCC4)ccc23)cc1 112%

Query: viability, T/C; subject: CC(C)n1c(=O)n(C)c2cnc3cc(F)c(-c4ccc(OCCCN5CCCCC5)nc4)cc3c21 + Cc1[nH]c2ccc(F)cc2c1-c1nc2c3cccnc3c3ncccc3c2[nH]1 123%

Query: viability, T/C; subject: COc1cccc2c1C(=O)c1c(O)c3c(c(O)c1C2=O)CC(O)(C(=O)CO)CC3OC1CC(N)C(O)C(C)O1 (configuration not stated) + CN(C)c1ccc(Nc2c3ccc(NC(=O)CCN4CCCC4)cc3nc3cc(NC(=O)CCN4CCCC4)ccc23)cc1 114%

Query: viability, T/C; subject: CC[C@@]1(O)C(=O)OCc2c1cc1n(c2=O)Cc2cc3c(CN(C)C)c(O)ccc3nc2-1 + CN(C)c1ccc(Nc2c3ccc(NC(=O)CCN4CCCC4)cc3nc3cc(NC(=O)CCN4CCCC4)ccc23)cc1 118%

Query: viability, T/C; subject: CC1COCCN1c1cc(C2(S(C)(=N)=O)CC2)nc(-c2ccnc3[nH]ccc23)n1 (configuration not stated) + CN(C)c1ccc(Nc2c3ccc(NC(=O)CCN4CCCC4)cc3nc3cc(NC(=O)CCN4CCCC4)ccc23)cc1 102%

Query: viability, T/C; subject: CCCS(=O)(=O)Nc1ccc(F)c(C(=O)c2c[nH]c3ncc(-c4ccc(Cl)cc4)cc23)c1F + Cc1[nH]c2ccc(F)cc2c1-c1nc2c3cccnc3c3ncccc3c2[nH]1 95.9%

Query: viability, T/C; subject: COc1cc(C2c3cc4c(cc3C(OC3OC5COC(C)OC5C(O)C3O)C3COC(=O)C23)OCO4)cc(OC)c1O (configuration not stated) + Cc1[nH]c2ccc(F)cc2c1-c1nc2c3cccnc3c3ncccc3c2[nH]1 99.9%

Query: viability, T/C; subject: C#Cc1c(F)ccc2cc(O)cc(-c3ncc4c(N5CC6CCC(C5)N6)nc(OCC56CCCN5CC(F)C6)nc4c3F)c12 (configuration not stated) + Cc1[nH]c2ccc(F)cc2c1-c1nc2c3cccnc3c3ncccc3c2[nH]1 108%

Query: viability, T/C; subject: CC1COCCN1c1cc(-c2ccnn2C)c2ccnc(-c3ccn[nH]3)c2n1 (configuration not stated) + CN(C)c1ccc(Nc2c3ccc(NC(=O)CCN4CCCC4)cc3nc3cc(NC(=O)CCN4CCCC4)ccc23)cc1 86.5%

Query: viability, T/C; subject: CC(=O)O[C@H]1C(=O)[C@@]2(C)[C@H]([C@H](OC(=O)c3ccccc3)[C@]3(O)C[C@H](OC(=O)[C@H](O)[C@@H](NC(=O)c4ccccc4)c4ccccc4)C(C)=C1C3(C)C)[C@]1(OC(C)=O)CO[C@@H]1C[C@@H]2O + CN(C)c1ccc(Nc2c3ccc(NC(=O)CCN4CCCC4)cc3nc3cc(NC(=O)CCN4CCCC4)ccc23)cc1 59.7%

Query: viability, T/C; subject: CC1COCCN1c1cc(-c2ccnn2C)c2ccnc(-c3ccn[nH]3)c2n1 (configuration not stated) + Cc1cnc(CNC(=O)c2c(=O)c3ccc(N4CCCN(C)CC4)nc3n3c2sc2ccccc23)cn1 97%
